# Test system: OVCAR-3 ovarian
# Assay Protocol: NCI tumour cell line growth inhibition, 48 h
Reported GI50 is given for each of the following compounds.
Endpoint Name: GI50

> print(dat)
                                    compound   observed
 1  [Cl-].[Gd+3].[O-]/N=C(\c1ccccc1)c1ccccn1.[O-]/N=C(\c1ccccc1)c1ccccn1.[O-]/N=C(\c1ccccc1)c1ccccn1    21.3 µM
 2  COc1ccc(-c2cc(-c3ccccc3)nc(NCCNc3ccnc4cc(Cl)ccc34)n2)cc1    1.82 µM
 3  COc1c(O)c2c3c(c1OC)-c1ccccc1CC3N(S(=O)(=O)c1ccc(C)cc1)CC2 (stereo not drawn)    1.18 µM
 4     OCCCCC#Cc1ccccc1C#Cc1ccc(C(F)(F)F)cc1    17.8 µM
 5     CCSc1ncc(Br)c(Sc2nc(N)nc3nc[nH]c23)n1    2.55 µM
 6  COc1cc2cc3c(c(O)c2c(O)c1-c1c(OC)cc2cc4c(c(O)c2c1O)C(=O)O[C@H](C)C4)C(=O)O[C@H](C)C3    21.2 µM
 7  c1cncc([O][Ge]([O]c2cccnc2)([O]c2cccnc2)[O]c2cccnc2)c1   > 100 µM
 8  Oc1ccccc1C=Nc1nc(OCc2ccccc2)nc2[nH]ncc12    17.8 µM
 9  CCN(CC)CCOc1ccc2c(C)c(C(=O)OC)oc2c1C(=O)/C=C/c1ccc(OC)cc1    4.36 µM
10  COc1cccc(C2C(C#N)=C(N)Oc3cc4c(cc32)OCO4)c1 (stereo not drawn)  0.0264 µM
11  Nc1ncc(C2[C@H](CNC(=O)c3cc(Br)c[nH]3)C(CNC(=O)c3cc(Br)c[nH]3)[C@@H]2c2cnc(N)[nH]2)[nH]1 (stereo partly drawn)    > 50 µM
12  C=C1CC/C=C(\C)CC[C@H](C(=C)C)[C@@H](O)/C=C(/CO)CCC1O (stereo partly drawn)      40 µM
13  c1cncc(C2ONC3=NCCN32)c1 (stereo not drawn)    2.86 µM
